Hi there, I'd appreciate the recorded pKi for every entry that follows.
biological target: Sigma non-opioid intracellular receptor 1 (Homo sapiens, UniProt Q99720); assay: GPCRScan assay: inhibition of Sigma 1
Sequence (Q99720 whole entry): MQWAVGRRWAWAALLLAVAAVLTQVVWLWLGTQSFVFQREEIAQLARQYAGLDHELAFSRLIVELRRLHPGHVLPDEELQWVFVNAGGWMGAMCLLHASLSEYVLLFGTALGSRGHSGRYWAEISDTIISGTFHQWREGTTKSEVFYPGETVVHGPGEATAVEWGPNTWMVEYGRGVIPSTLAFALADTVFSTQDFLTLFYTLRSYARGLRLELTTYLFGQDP
Keep in mind that pKi stands for -log10 of concentration in molar terms.

## Task Any idea what pKi was measured for CCOc1cc(N2C3COCC2CN(C(=O)[C@H]2C[C@H](O)CN2c2ccc(Cl)cc2)C3)ccc1Cl ?
## Result 5.74

## Task Next molecule: O=C([C@H]1C[C@H](O)CN1c1ccc(Cl)cc1)N1CC2COCC(C1)N2Cc1ccc(Cl)cc1
## Result 5.08
